Hello, the source for this data is the RNAGym collection of RNA variant scans (doi:10.7554/elife.80360), in case you need it.

B1: CPEB3 Ribozyme (parent)
chain: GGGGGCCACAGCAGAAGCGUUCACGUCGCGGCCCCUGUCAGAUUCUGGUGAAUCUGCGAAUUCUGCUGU

variants of: B1; assay: self-cleavage, relative activity (ratio to wild type); higher = more cleavage; co-transcriptional
Endpoint name: self-cleavage
// response body must contain only the number

Here are 5 variants together with their reported answers.
# Mutation spec, self-cleavage
rows = [
    ("G50A C54G", 0.848),
    ("G2A C7G", 0.063),
    ("G11U U69C", 1.05),
    ("A40U A59C", 0.285),
    ("A15C U69A", 0.962),
]

[in] Assign self-cleavage to the following record: U20C G65U
[out] 0.18

[in] Assign self-cleavage to the following record: A13U C57A
[out] 0.194
